Please find below pIC50 data on Nitric oxide synthase 3 (Homo sapiens) compiled from the literature.
Sequence (P29474 whole entry): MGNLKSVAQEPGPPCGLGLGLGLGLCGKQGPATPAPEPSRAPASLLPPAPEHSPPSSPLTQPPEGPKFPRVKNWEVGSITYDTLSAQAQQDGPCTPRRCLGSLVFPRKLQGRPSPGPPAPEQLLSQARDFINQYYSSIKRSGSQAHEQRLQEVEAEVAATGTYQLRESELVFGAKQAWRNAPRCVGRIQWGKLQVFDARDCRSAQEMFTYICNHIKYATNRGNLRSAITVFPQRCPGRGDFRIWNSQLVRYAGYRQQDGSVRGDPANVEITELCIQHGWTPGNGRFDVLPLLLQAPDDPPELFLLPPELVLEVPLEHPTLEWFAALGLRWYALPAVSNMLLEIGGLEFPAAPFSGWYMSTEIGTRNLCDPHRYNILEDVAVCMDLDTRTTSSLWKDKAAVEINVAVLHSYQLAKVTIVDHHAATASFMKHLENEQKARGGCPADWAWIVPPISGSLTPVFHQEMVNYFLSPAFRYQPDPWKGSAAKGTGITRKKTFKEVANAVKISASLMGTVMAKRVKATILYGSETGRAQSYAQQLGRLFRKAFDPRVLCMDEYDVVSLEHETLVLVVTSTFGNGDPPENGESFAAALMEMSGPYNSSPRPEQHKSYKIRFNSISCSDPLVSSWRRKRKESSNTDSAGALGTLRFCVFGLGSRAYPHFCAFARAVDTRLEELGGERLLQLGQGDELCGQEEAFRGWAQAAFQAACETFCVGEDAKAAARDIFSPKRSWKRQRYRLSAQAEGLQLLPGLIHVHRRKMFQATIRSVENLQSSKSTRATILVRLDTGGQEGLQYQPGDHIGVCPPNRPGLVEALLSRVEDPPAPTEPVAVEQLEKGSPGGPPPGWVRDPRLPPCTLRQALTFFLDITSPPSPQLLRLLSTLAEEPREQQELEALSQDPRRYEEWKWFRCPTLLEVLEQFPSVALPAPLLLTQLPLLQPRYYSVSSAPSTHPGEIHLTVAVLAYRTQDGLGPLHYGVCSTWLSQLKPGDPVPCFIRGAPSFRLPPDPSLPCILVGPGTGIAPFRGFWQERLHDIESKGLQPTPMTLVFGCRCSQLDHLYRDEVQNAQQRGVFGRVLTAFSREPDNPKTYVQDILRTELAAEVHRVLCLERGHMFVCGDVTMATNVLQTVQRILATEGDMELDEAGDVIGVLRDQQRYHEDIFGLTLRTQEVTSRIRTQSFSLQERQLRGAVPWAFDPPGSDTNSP
Numbers only, as −log10 of the molar value.

>  <molecule>
NC1=Nc2c(ccc(F)c2F)[C@H]2CCC[C@@H]12

>  <result value>
4.70

$$$$
>  <molecule>
N=C(Nc1ccc2nc(NCCc3ccccn3)sc2c1)c1cccs1

>  <result value>
6.05

$$$$

Please state, for each entry, its recorded pIC50.
1. CC1CCC(N)=N1 (stereo not given)
2. CC1CCCC(N)=N1 (stereo not given)

Result:
4.60
6.22

---

pIC50: −log10 of the molar value.
Please find below pIC50 data on UniProt P29474 compiled from the literature.
Could you please classify the records by pIC50 using these ranges: 0: < 4; 1: ≥ 4 and < 5; 2: ≥ 5

Take a look at these entries with their results.
>  <compound>
NC1=NCCOCC1

>  <target or test system>
UniProt P29474

>  <class name>
1

$$$$
>  <compound>
NC1=Nc2c(F)cccc2[C@H]2CCC[C@@]12F

>  <target or test system>
UniProt P29474

>  <class name>
1

$$$$
>  <compound>
NC1=Nc2ccc(C(F)(F)F)cc2[C@H]2CCC[C@@H]12

>  <target or test system>
UniProt P29474

>  <class name>
1

$$$$
>  <compound>
CN(C)[C@H]1CC[C@H](c2c[nH]c3ccc(NC(=N)c4cccs4)cc32)CC1

>  <target or test system>
UniProt P29474

>  <class name>
0

$$$$

Task: Kindly state the category for this compound: N=C(Nc1ccc2nc(NCCc3ccc(Br)cc3)sc2c1)c1cccs1
Result: 2

Task: Kindly state the category for this compound: Cc1ccnc(N)c1C
Result: 2

Task: Kindly state the category for this compound: CCC1CC(C)C(N)=N1 (centres undefined)
Result: 2

Task: Kindly state the category for this compound: CCC1CN=C(N)C1 (centres undefined)
Result: 1

Task: Kindly state the category for this compound: O=C(/C=C/c1ccccc1Cl)N[C@@H](Cc1ccc(F)cc1)C(=O)O
Result: 0

Task: Kindly state the category for this compound: O=c1oc2ccc(Cl)cc2n1CN1CCSCC1
Result: 1

Task: Kindly state the category for this compound: NC1=Nc2c(cc(Cl)c(F)c2F)[C@H]2CCC[C@@H]12
Result: 0

Task: Kindly state the category for this compound: Cc1cc(N)nc(CCCc2ccccc2)c1
Result: 1

---

Please find below IC50 data on Nitric oxide synthase 3 (Homo sapiens) compiled from the literature.

Below: 5 compounds and their reported IC50.
>  <compound>
NC1=Nc2c(Cl)cc(Cl)cc2[C@H]2CCC[C@@H]12

>  <IC50>
> 200 µM

$$$$
>  <compound>
COc1ccnc(CSc2nc3ccncc3[nH]2)c1

>  <IC50>
> 100 µM

$$$$
>  <compound>
CC(=N)NCCC[C@H](N)C(=O)O

>  <IC50>
6 µM

$$$$
>  <compound>
COc1cc(-c2cccc(N)n2)c(OC)cc1CN(C)C

>  <IC50>
> 32 µM

$$$$
>  <compound>
N#Cc1ccc2oc(O)nc2c1

>  <IC50>
50 µM

$$$$

Please state, for each entry, its recorded IC50.
1. NNC(=S)NCCC[C@H](N)C(=O)O
2. CCCCCC1N=C(N)CC1C (stereo in doubt; 21)
3. COc1ccnc(NC2CCN(C(=O)c3ccc(Cl)cc3)CC2)c1
4. CCCCC1CSCCC(N)=N1 (stereo unspecified)
5. CN(Cc1cc(Cl)ccc1C#N)C1CCN(Cc2ccccc2)CC1
6. Cc1cc(C)nc(N)c1

Result:
1: 3060 µM; 2: 578 µM; 3: 36 µM; 4: 77 µM; 5: 4.3 µM; 6: 0.045 µM

---

Please find below IC50 data on Nitric oxide synthase 3 (Homo sapiens) compiled from the literature.

Please state, for each entry, its recorded IC50.
1. CCCCC1CCCCC(N)=N1 (configuration not stated)
2. Cc1ccc2nc(O)oc2n1
3. Cc1cc(N)nc(CCC(C)C)c1
4. CC(=N)NCCCC[C@H](N)C(=O)O
5. NC1=Nc2ccc(F)cc2[C@H]2CCC[C@@H]12
6. NC1=NCCC(C(F)(F)F)C1 (configuration not stated)

Result:
1. 103 µM
2. > 50 µM
3. 1.9 µM
4. 138 µM
5. 2.3 µM
6. 47 µM

Let me check: NC1=NCCCO1 , system Nitric oxide synthase 3 (Homo sapiens), measured IC50 is 8.2 µM
